pKi: −log10 of the molar value.
Glycogen Synthase Kinase 3 (GSK-3) (Homo sapiens, UniProt P49841) pKi data
Sequence (P49841 whole entry): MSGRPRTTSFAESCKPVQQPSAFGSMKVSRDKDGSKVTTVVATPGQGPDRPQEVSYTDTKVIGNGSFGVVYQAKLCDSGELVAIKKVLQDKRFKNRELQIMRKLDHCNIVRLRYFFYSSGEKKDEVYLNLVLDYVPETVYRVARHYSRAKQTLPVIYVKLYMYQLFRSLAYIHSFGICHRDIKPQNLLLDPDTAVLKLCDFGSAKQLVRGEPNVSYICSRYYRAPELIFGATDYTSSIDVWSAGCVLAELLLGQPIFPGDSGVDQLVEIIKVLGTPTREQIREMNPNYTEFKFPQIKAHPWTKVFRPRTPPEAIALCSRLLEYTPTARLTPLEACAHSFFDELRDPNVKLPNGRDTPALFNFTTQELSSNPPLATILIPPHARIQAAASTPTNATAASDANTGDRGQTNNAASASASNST
MEASURED_QUANTITY: pKi

1) COc1ccc(-c2cccc(F)c2)cc1Nc1nccc(-c2ccc(OC)c(OC)c2OC)n1 : < 6.00
2) COc1cc(-c2ccnc(Nc3cccc(Cl)c3)n2)cc2c1OCCO2 : > 7.00
3) COc1ccc(-c2ccnc(Nc3cc(-c4cccc(N)c4)ccc3C)n2)c(OC)c1OC : < 6.00
4) COc1ccc(Nc2nccc(-c3cc(OC)c(OC)c(OC)c3)n2)cc1OC : 6.00 to 7.00
5) COc1ccc(-c2ccnc(Nc3cc(-c4cccc(Cl)c4)ccc3F)n2)c(OC)c1OC : < 6.00
6) CCOc1ccc(Oc2cc(Nc3nccc(-c4ccc(OC)c(OC)c4OC)n3)ccc2OC)cc1 : 6.00 to 7.00
7) COc1c(-c2ccnc(Nc3cccc(OCc4ccccc4)c3)n2)ccc2c1OCCO2 : < 6.00
8) COc1ccc(-c2ccnc(Nc3cc(-c4cccc(O)c4)ccc3C)n2)c(OC)c1OC : 6.00 to 7.00
9) COc1cc(-c2ccnc(Nc3ccccc3F)n2)cc(OC)c1OC : < 6.00
10) COc1cc(-c2ccnc(Nc3cccc(OCc4ccccc4)c3)n2)cc(OC)c1OC : > 7.00
11) COc1ccc(-c2ccnc(Nc3cccc(Oc4cccc(N)c4)c3)n2)c(OC)c1OC : > 7.00
12) COc1cc(-c2ccnc(Nc3ccc(N)cc3)n2)cc(OC)c1OC : 6.00 to 7.00
13) COc1cc(-c2ccnc(NC3CCCCC3)n2)cc(OC)c1OC : < 6.00
14) COc1ccc(Oc2cc(Nc3nccc(-c4ccc(OC)c(OC)c4OC)n3)ccc2OC)cc1 : > 7.00
15) COc1c(Br)cc(-c2ccnc(Nc3cccc(Cl)c3)n2)cc1Br : 6.00 to 7.00
16) COc1cc(-c2ccnc(NCc3ccccc3)n2)cc(OC)c1OC : < 6.00
17) COc1ccc(-c2ccnc(Nc3cccc(Oc4cccc([N+](=O)[O-])c4)c3)n2)c(OC)c1OC : > 7.00
18) COc1cc(-c2ccnc(Nc3nc4ccccc4[nH]3)n2)cc(OC)c1OC : > 7.00
19) COc1c(C)cc(-c2ccnc(Nc3cccc(Cl)c3)n2)cc1C : < 6.00
20) COc1cc(-c2ccnc(Nc3cccc(N)c3)n2)cc(OC)c1OC : 6.00 to 7.00
21) COc1ccc(-c2cccc(Cl)c2)cc1Nc1nccc(-c2ccc(OC)c(OC)c2OC)n1 : < 6.00
22) COc1cc(-c2ccnc(Nc3cccc(Cl)c3)n2)cc(OC)c1OCCN1CCOCC1 : 6.00 to 7.00
23) COc1cc(-c2ccnc(Nc3ccc(F)cc3F)c2)cc(OC)c1OC : 6.00 to 7.00
24) COc1cc(-c2ccnc(Nc3onc(C)c3C)n2)cc(OC)c1OC : < 6.00
25) COc1ccc(Nc2nccc(-c3ccc(OC)c(OC)c3OC)n2)cc1N : < 6.00
26) COc1cc(-c2ccnc(Nc3ccc(Cl)cc3)n2)cc(OC)c1OC : 6.00 to 7.00
27) COc1ccc(-c2ccc(C)c(Nc3nccc(-c4ccc(OC)c(OC)c4OC)n3)c2)cc1 : < 6.00
28) COc1cc(Nc2nccc(-c3cc(OC)c(OC)c(OC)c3)n2)cc(OC)c1 : 6.00 to 7.00
29) COc1cccc(Nc2nccc(-c3cc(Cl)c(OC)c(Cl)c3)n2)c1 : 6.00 to 7.00
